Biological target: Sialic acid-binding Ig-like lectin 9 (Homo sapiens) (UniProt Q9Y336)
Sequence (Q9Y336 whole entry): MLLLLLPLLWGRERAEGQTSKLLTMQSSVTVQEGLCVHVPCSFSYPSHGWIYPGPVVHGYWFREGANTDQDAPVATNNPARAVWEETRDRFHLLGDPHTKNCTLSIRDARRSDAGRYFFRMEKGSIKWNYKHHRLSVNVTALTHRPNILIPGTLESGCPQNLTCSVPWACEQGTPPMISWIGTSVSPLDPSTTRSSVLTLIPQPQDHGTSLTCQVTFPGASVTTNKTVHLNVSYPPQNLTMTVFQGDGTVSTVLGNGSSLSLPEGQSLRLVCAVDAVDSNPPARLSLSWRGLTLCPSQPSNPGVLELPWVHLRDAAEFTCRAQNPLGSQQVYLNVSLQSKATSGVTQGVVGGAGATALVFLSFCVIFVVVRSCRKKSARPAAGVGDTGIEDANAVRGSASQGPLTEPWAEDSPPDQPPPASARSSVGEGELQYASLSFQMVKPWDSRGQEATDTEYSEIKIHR
Assay: Hs-Siglec9 ALPHAscreen SOP 20170721
Set-up: scale not given: direction of the effect not stated beside the values
Details: 10 µM
assay.endpoint: Percent Effect (%)
Report only the number, with the unit % understood.

Example cases with answers are listed next.
>>> print(df.to_string())
                                   molecule  reading
0  NC(=O)C1CCN(CCc2ccc(NC(=O)C3CCC3)cc2)CC1     9.13
1  CCC(C)N(C)CCNC(=O)NCc1cccc(-n2cncn2)c1 (centres undefined)     27.3
2  FC(F)(F)c1cc(N2CCc3ncnc(NC4CC4)c3CC2)ncn1    -4.57
3  Cc1nc(CN2CCCN(C(=O)C(C)OCC3CC3)CC2)cs1 (centres undefined)    0.839
4     O=C(c1cccnc1-n1cccn1)N1CCN(CC2CC2)CC1     1.24

# query: Percent Effect of entry COCc1nc2n(n1)CCCC2Nc1nc(C2CC2)ns1 (centres undefined)
23.5

# query: Percent Effect of entry O=C(Cn1nc(-c2ccc(F)cc2)oc1=O)NCc1ccc(F)cc1
-1.53

# query: Percent Effect of entry CCN1CCC(c2nc3ccc(NC(C)C)cn3n2)CC1
-3.17

====

Percent Effect values for the molecules below.
Species: Homo sapiens
Experiment: To identify inhibition of the IFN signalling (Jak-Stat) pathway via expression of an eGFP reporter gene under the control of an IFN-stimulated response element (ISRE) containing MxA promoter.
Format: functional
Parameters: scale not given: direction of the effect not stated beside the values
Conditions: 30 µM
Report only the number, with the unit % understood.

Example cases with answers are listed next.
>>> df
                                   molecule  reading
0  CC(C)CN1CCN(Cc2nc3ccccc3[nH]2)[C@H]2CS(=O)(=O)C[C@H]21   0.0398
1  CC(C)Nc1ncc(CN2C[C@@H](CN3CCC(O)CC3)[C@@H](CO)C2)cn1     8.53
2  CC(C)N1CCCC(CCCc2ccccn2)(C(=O)O)C1 (configuration not stated)    -2.07
3         Cc1ncc2c(n1)CN(CC(=O)Nc1nncs1)CC2    -6.49
4  Cc1n[nH]cc1C(=O)N1CCCC(n2nnc3cc(F)ccc32)C1 (configuration not stated)     5.51
5  Cc1cc(F)ccc1CN1CCC(O)(CN2CCCCC2)C1 (configuration not stated)    -1.85
6  Cc1nc(CN2CCc3ncnc(-c4ccc(F)cc4)c3CC2)cs1    -9.45
7  O=C(c1cccc2c1OCCO2)N1CCCC(n2ccnc2)C1 (configuration not stated)     13.9
8           O=C(NCCC1=CCCCC1)NCc1nnc2n1CCC2     7.88
9  CC1CN(CC(=O)Nc2cccnc2)CCN1c1nccs1 (configuration not stated)     27.8

Consider the additional molecule presented here.
# query: Percent Effect of entry CCOCCCNC(=O)c1cc(C(C)C)nc(N2CCCCCC2)n1
17

====

Percent Effect values for the molecules below.
Target: Arginase-2, mitochondrial (Homo sapiens) (UniProt P78540)
Sequence (P78540 whole entry): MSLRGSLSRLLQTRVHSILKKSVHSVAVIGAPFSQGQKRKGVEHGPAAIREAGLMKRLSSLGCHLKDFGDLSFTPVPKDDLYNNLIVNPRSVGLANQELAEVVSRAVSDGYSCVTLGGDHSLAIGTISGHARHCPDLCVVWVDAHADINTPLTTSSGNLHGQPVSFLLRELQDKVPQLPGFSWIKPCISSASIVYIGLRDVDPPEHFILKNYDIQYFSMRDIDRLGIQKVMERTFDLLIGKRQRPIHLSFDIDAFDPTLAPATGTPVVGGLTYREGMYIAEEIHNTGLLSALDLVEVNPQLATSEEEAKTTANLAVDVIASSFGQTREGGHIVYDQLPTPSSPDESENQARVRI
Assay: in vitro enzyme assay to detect the production of urea directly proportional to the activity of Arginase II; further: in the data most compounds retested in dose-response had high values
Format: functional
Parameters: scale not given: direction of the effect not stated beside the values
Conditions: 33.3 µM
Report only the number, with the unit % understood.

Example cases with answers are listed next.
In [3]: df
Out[3]:
                                   molecule  reading
0  CN(C)CC1CN(c2cnc3ccccc3n2)CCO1 (stereo unspecified)     6.84
1    CCCNC(=O)CCC(=O)Nc1ccc(-n2cncn2)c(F)c1    -2.68
2  Cc1nc(CN2CCOC(Cn3cncn3)C2)nc2ccccc12 (stereo unspecified)    -1.05
3  Cc1n[nH]c(C2CN(C(=O)CCc3ccco3)CCO2)n1 (stereo unspecified)     3.55
4  CCC(NC(=O)C1CCN(S(C)(=O)=O)CC1)c1ccc(OC)c(OC)c1 (stereo unspecified)    -5.52

# query: Percent Effect of entry Cc1nccn1C1CCCN(C(=O)c2cc(O)nc3ccccc23)C1 (stereo unspecified)
-4.18

# query: Percent Effect of entry Cn1nccc1-c1ccc2nc(C3CCN(CCO)CC3)nn2c1
-54.7

# query: Percent Effect of entry Cc1cc(-c2cnc(NCc3cccnc3)nc2C(C)(C)C)on1
-0.699

# query: Percent Effect of entry Cc1csc2nc3n(c(=O)c12)CCN(C(=O)c1ccncc1)CC3
-2.09

# query: Percent Effect of entry CCCc1nc(CN2CCCC(Cn3cncn3)C2)no1 (stereo unspecified)
0.215

# query: Percent Effect of entry CC(C)COCC(NC(=O)c1cc[nH]n1)c1ccco1 (stereo unspecified)
-13.6

# query: Percent Effect of entry CC(O)CN1CCN(C(=O)c2ccc(Cn3cccn3)cc2)CC1 (stereo unspecified)
-9.22

====

Percent Effect values for the molecules below.
Target: Tyrosyl-tRNA synthetase, putative (Trypanosoma cruzi (strain CL Brener)) (UniProt Q4DSP6)
Sequence (whole entry): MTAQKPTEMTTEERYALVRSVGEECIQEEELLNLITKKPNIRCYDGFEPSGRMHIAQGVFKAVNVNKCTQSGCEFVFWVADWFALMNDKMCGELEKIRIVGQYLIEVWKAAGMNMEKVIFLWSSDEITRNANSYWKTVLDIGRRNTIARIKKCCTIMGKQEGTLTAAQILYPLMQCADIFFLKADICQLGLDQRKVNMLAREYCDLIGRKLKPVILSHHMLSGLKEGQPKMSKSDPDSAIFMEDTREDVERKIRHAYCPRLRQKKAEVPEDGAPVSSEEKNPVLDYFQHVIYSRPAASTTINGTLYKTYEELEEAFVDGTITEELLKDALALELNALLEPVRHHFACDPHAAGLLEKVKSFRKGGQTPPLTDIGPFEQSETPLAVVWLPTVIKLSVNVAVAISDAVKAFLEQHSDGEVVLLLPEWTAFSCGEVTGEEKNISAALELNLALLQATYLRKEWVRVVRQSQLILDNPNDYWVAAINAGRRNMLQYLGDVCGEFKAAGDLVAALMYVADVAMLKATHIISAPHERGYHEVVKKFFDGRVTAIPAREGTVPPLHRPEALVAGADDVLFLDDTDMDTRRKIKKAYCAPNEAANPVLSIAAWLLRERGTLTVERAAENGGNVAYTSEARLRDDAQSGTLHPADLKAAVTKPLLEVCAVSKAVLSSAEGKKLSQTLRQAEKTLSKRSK
Experiment: Trypanosoma cruzi tyrosyl tRNA synthetase (TcYRS) SOP
Format: functional
Set-up: scale not given: direction of the effect not stated beside the values
Settings: 30 µM
Report only the number, with the unit % understood.

>>> df
                                   molecule  reading
0  CC(OCC(F)(F)F)C(=O)NCc1ccc(-n2cncn2)nc1 (configuration not stated)     23.5
1  CC(=O)N(Cc1noc(C)n1)C1CCN(Cc2ccncc2Cl)C1 (configuration not stated)     12.7
2  CCn1ccnc1CN1C[C@@H](CN2CCCC2)[C@@H](CO)C1     7.32
3  O=C(c1cccc(Cl)c1)N1CCCn2c(CN3CCCCC3)nnc2C1     3.85
4  Cc1ccc(CN2CC[C@H]3OCC[C@@H](c4nc(C)no4)[C@H]3C2)cc1     10.3
5  c1cnnc(N2CCCC2CNc2ncnc3c2CCC3)c1 (configuration not stated)     15.2

Consider the additional molecule presented here.
# query: Percent Effect of entry COc1cc(N2C[C@@H]3COC[C@]3(COc3ccc(C#N)cn3)C2)ncn1
7.69

====

Percent Effect values for the compounds below.
System: Trypanosoma cruzi
Test: Trypanosoma cruzi phosphomannomutase and mannose-1-phosphate guanylyltransferase assay
Assay type: functional
Parameters: scale not given: direction of the effect not stated beside the values
Conditions: 10 µM
Report only the number, with the unit % understood.

Example cases with answers are listed next.
>>> df
                                   compound  reading
0  CN(C(=O)c1cc(Cl)c[nH]1)C1CCN(c2ccccn2)CC1     6.17
1  COCc1nc2n(n1)CCCC2Nc1nc(C2CC2)ns1 (stereo not drawn)     2.82
2        COc1ccccc1CNC(=O)Cn1ncc2c1c(C)nn2C    -7.86
3  COc1cc(CNC2CCc3nc(C)nn3C2)cc2c1OCCO2 (stereo not drawn)     5.51
4   Cc1c(C)n(Cc2ccccn2)c2nc3c(c(N)c12)CCCC3    -3.73
5  Cc1cnn(CC2CCCN2C(=O)c2cccc(-n3cnnn3)c2)c1 (stereo not drawn)    -1.79

# query: Percent Effect of entry Cn1ncc2c(=O)[nH]c(CN(Cc3ccco3)C3CCCC3)nc21
2.81

# query: Percent Effect of entry Cc1ccoc1C(=O)NC1CCN(Cc2csc3c(F)cccc23)CC1
-0.308
